The values you see were collected from ChEMBL document CHEMBL1759956.

Catalogue of viability at 48 h, 10 ug values
test-details: Cytotoxicity against human CEM cells expressing green fluorescent protein assessed as cell viability at 10 ug after 48 hrs by MTT assay
Assay type: cell-based, CCRF-CEM
conditions: read-out: Activity
# output: bare number, implied unit %

The cases that follow already have their viability at 48 h, 10 ug on record.
item-smiles: O=C1Nc2ccccc2[C@]12C[C@H]2CO
readout-type: viability at 48 h, 10 ug
obs-value: 96
--
item-smiles: O=C1Nc2ccc([N+](=O)[O-])cc2[C@]12C[C@H]2CCl
readout-type: viability at 48 h, 10 ug
obs-value: 101
--
item-smiles: O=C1Nc2ccc([N+](=O)[O-])cc2[C@]12C[C@H]2CO
readout-type: viability at 48 h, 10 ug
obs-value: 119
--
item-smiles: O=C1Nc2ccc(OC(F)(F)F)cc2[C@]12C[C@H]2CCl
readout-type: viability at 48 h, 10 ug
obs-value: 94
--
item-smiles: O=C1Nc2ccccc2[C@]12C[C@H]2CCl
readout-type: viability at 48 h, 10 ug
obs-value: 91

The compound listed as `O=C1Nc2ccc(OC(F)(F)F)cc2[C@]12C[C@H]2CO` shows viability at 48 h, 10 ug equal to 91

The compound listed as `Cc1ccc2c(c1)[C@]1(C[C@H]1CCl)C(=O)N2` shows viability at 48 h, 10 ug equal to 92

The compound listed as `Cc1ccc2c(c1)[C@]1(C[C@H]1CO)C(=O)N2` shows viability at 48 h, 10 ug equal to 105

* * *

test-details: Cytotoxicity against human TZM-bl cells assessed as cell viability at 50 ug after 48 hrs by MTT assay
Format: cell-based
conditions: read-out: Activity
Catalogue of viability at 48 h, 50 ug values
# output: bare number, implied unit %

The cases that follow already have their viability at 48 h, 50 ug on record.
item-smiles: O=C1Nc2ccc(OC(F)(F)F)cc2[C@]12C[C@H]2CO
unit-of-measurement: %
viability at 48 h, 50 ug: 62

item-smiles: Cc1ccc2c(c1)[C@]1(C[C@H]1CCl)C(=O)N2
unit-of-measurement: %
viability at 48 h, 50 ug: 88

item-smiles: O=C1Nc2ccc([N+](=O)[O-])cc2[C@]12C[C@H]2CO
unit-of-measurement: %
viability at 48 h, 50 ug: 104

The compound listed as `O=C1Nc2ccc(OC(F)(F)F)cc2[C@]12C[C@H]2CCl` shows viability at 48 h, 50 ug equal to 66

The compound listed as `O=C1Nc2ccccc2[C@]12C[C@H]2CO` shows viability at 48 h, 50 ug equal to 92

The compound listed as `Cc1ccc2c(c1)[C@]1(C[C@H]1CO)C(=O)N2` shows viability at 48 h, 50 ug equal to 95

The compound listed as `O=C1Nc2ccc([N+](=O)[O-])cc2[C@]12C[C@H]2CCl` shows viability at 48 h, 50 ug equal to 101

The compound listed as `O=C1Nc2ccccc2[C@]12C[C@H]2CCl` shows viability at 48 h, 50 ug equal to 87

* * *

Catalogue of viability at 48 h, 10 ug values
test-details: Cytotoxicity against human TZM-bl cells assessed as cell viability at 10 ug after 48 hrs by MTT assay
Type: cell-based
conditions: read-out: Activity
# output: bare number, implied unit %

The compound listed as `O=C1Nc2ccccc2[C@]12C[C@H]2CCl` shows viability at 48 h, 10 ug equal to 93
